The following compounds are shown together with reported pIC50 values.
Biological target: mTOR (Homo sapiens, UniProt P42345)
Construct: endogenous in cells; host or cells: Jurkat, clone E6-1 (ATCC TIB-152) cell lysate
Test: mTOR kinobeads assay (competitive binding in Jurkat cell lysate, immunodetection)
Details: kinobeads assay, Table 6; read-out: Inhibition values (IC50) mTOR
pIC50: −log10 of the molar value.

# annotated cases, reported pIC50 shown
{"mol": "C[C@H]1COCCN1c1nc(-c2ccc(NC(=O)Nc3ccc(F)cc3)cc2)nc2c1CN(C)C2", "tgt": "mTOR (Homo sapiens, UniProt P42345)", "pIC50": "6.00 to 7.00"}
{"mol": "CCNC(=O)Nc1ccc(-c2nc3c(c(N4CCOC[C@@H]4C)n2)CN(C(=O)CCN(C)C)CC3)cc1", "tgt": "mTOR (Homo sapiens, UniProt P42345)", "pIC50": "6.00 to 7.00"}

Noted for CCN1Cc2nc(-c3ccc(NC(=O)NC4CC4)cc3)nc(N3CCOC[C@@H]3C)c2C1 : its pIC50 reads > 7.00

Short answer for CCNC(=O)Nc1ccc(-c2nc3c(c(N4CCOC[C@@H]4C)n2)CNCC3)cc1 : pIC50 was 6.00 to 7.00

# pIC50 (compound: CCOC(=O)N1Cc2nc(-c3ccc(NC(=O)NCCN)cc3)nc(N3CCOC[C@@H]3C)c2C1 ) is > 7.00

So for CCNC(=O)Nc1ccc(-c2nc3c(c(N4CCOC[C@@H]4C)n2)CN(Cc2ccc(F)cc2)C3)cc1 , the logged pIC50 turned out to be 6.00 to 7.00

Quick note, pIC50 for C[C@H]1COCCN1c1nc(-c2ccc(NC(=O)NC3CC3)cc2)nc2c1CN(CCCC(=O)O)C2 landed at > 7.00

The measured pIC50 associated with CCNC(=O)Nc1ccc(-c2nc3c(c(N4CCOC[C@@H]4C)n2)CN(C(=O)OCC)C3)cc1F reads 6.00 to 7.00
